Catalogue of pIC50 readings, one per entry.
- Target entity: UniProt O43614
- Sequence (O43614 whole entry): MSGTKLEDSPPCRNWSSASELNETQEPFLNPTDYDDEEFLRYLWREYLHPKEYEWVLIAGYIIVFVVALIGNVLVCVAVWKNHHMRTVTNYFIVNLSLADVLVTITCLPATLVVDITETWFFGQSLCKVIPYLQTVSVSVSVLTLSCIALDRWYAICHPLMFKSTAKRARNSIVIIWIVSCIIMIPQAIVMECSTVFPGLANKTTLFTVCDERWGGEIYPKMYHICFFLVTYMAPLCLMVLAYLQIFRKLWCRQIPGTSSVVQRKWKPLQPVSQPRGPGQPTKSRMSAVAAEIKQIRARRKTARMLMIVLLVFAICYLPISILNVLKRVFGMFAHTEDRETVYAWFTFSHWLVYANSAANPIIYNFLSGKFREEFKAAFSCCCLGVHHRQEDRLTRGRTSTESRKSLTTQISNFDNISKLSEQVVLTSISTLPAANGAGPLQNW
- Assay explanation: FLIPR Ca2+ Flux Assay, hOX2R
- Assay type: cell-based
- Measurement context: CHO cells expressing the human orexin-2 receptor; agonist 70 pM Ala-6,12 orexin-A
Formally, pIC50 is defined as -log10 of the concentration c, with c in mol/L.

See these solved cases before continuing.
Compound	Quantity name	Recorded result
COC(=O)c1c(C2CCC2)ccnc1O[C@@H]1CC[C@@H](C)N(C(=O)c2ccccc2-n2nccn2)C1 [Example 14]	pIC50	6.57
CCOC(=O)c1c(C)ccnc1O[C@@H]1CC[C@@H](C)N(C(=O)c2ccccc2-n2nccn2)C1 [Example 1]	pIC50	8.08
COC(=O)c1c(SC)ccnc1O[C@@H]1CC[C@@H](C)N(C(=O)c2cccc(F)c2-c2ncccn2)C1 [Example 7]	pIC50	7.42
COC(=O)c1c(C)cccc1O[C@@H]1CC[C@@H](C)N(C(=O)c2ccccc2-n2nccn2)C1 [Example 15]	pIC50	7.44
COC(=O)c1c(C(C)C)ccnc1O[C@@H]1CC[C@@H](C)N(C(=O)c2ccccc2-n2nccn2)C1 [Example 12]	pIC50	8.26
COC(=O)c1c(SC)ccnc1O[C@@H]1CC[C@@H](C)N(C(=O)c2cc(F)ccc2-c2ncccn2)C1 [Example 5]	pIC50	7.14

INPUT: Can you look up pIC50 on UniProt O43614 for COC(=O)c1c(C2CC2)ccnc1O[C@@H]1CC[C@@H](C)N(C(=O)c2ccccc2-n2nccn2)C1 [Example 13] ?
OUTPUT: 6.28

INPUT: Can you look up pIC50 on UniProt O43614 for COC(=O)c1c(C(C)(C)C)ccnc1O[C@@H]1CC[C@@H](C)N(C(=O)c2ccccc2-n2nccn2)C1 [Example 11] ?
OUTPUT: 6.00

INPUT: Can you look up pIC50 on UniProt O43614 for COC(=O)c1c(SC)ccnc1O[C@@H]1CC[C@@H](C)N(C(=O)c2ccccc2-n2nccn2)C1 [Example 3] ?
OUTPUT: 8.00

INPUT: Can you look up pIC50 on UniProt O43614 for COC(=O)c1c(SC)ccnc1O[C@@H]1CC[C@@H](C)N(C(=O)c2ccccc2-c2ncccn2)C1 [Example 4] ?
OUTPUT: 7.55

INPUT: Can you look up pIC50 on UniProt O43614 for CCOC(=O)c1c(CC)ccnc1O[C@@H]1CC[C@@H](C)N(C(=O)c2ccccc2-n2nccn2)C1 [Example 17] ?
OUTPUT: 7.39

INPUT: Can you look up pIC50 on UniProt O43614 for COC(=O)c1c(N2CCN(C)CC2)ccnc1O[C@@H]1CC[C@@H](C)N(C(=O)c2ccccc2-n2nccn2)C1 [Example 9] ?
OUTPUT: 5.82

INPUT: Can you look up pIC50 on UniProt O43614 for COC(=O)c1c(O[C@@H]2CC[C@@H](C)N(C(=O)c3ccccc3-n3nccn3)C2)cccc1C(C)C [Example 16] ?
OUTPUT: 7.16

INPUT: Can you look up pIC50 on UniProt O43614 for CCc1ccnc(O[C@@H]2CC[C@@H](C)N(C(=O)c3ccccc3-n3nccn3)C2)c1C(=O)OC [Example 10] ?
OUTPUT: 7.68

INPUT: Can you look up pIC50 on UniProt O43614 for COC(=O)c1c(C)ccnc1O[C@@H]1CC[C@@H](C)N(C(=O)c2ccccc2-n2nccn2)C1 [Example 2] ?
OUTPUT: 7.76

INPUT: Can you look up pIC50 on UniProt O43614 for COC(=O)c1c(N2CCC2)ccnc1O[C@@H]1CC[C@@H](C)N(C(=O)c2ccccc2-n2nccn2)C1 [Example 8] ?
OUTPUT: 7.48

INPUT: Can you look up pIC50 on UniProt O43614 for COC(=O)c1c(SC)ccnc1O[C@@H]1CC[C@@H](C)N(C(=O)c2ccc(F)cc2-c2ncccn2)C1 [Example 6] ?
OUTPUT: 7.50
